Data provenance is ChEMBL document CHEMBL3400096.

molecular target: Phosphatidylinositol 4,5-bisphosphate 3-kinase catalytic subunit gamma isoform (Homo sapiens); experiment: Inhibition of recombinant PI3Kgamma (unknown origin) using […] as substrate after 3 hrs incubation by competitive fluorescence polarization kinase activity assay
Sequence (P48736 whole entry, canonical isoform): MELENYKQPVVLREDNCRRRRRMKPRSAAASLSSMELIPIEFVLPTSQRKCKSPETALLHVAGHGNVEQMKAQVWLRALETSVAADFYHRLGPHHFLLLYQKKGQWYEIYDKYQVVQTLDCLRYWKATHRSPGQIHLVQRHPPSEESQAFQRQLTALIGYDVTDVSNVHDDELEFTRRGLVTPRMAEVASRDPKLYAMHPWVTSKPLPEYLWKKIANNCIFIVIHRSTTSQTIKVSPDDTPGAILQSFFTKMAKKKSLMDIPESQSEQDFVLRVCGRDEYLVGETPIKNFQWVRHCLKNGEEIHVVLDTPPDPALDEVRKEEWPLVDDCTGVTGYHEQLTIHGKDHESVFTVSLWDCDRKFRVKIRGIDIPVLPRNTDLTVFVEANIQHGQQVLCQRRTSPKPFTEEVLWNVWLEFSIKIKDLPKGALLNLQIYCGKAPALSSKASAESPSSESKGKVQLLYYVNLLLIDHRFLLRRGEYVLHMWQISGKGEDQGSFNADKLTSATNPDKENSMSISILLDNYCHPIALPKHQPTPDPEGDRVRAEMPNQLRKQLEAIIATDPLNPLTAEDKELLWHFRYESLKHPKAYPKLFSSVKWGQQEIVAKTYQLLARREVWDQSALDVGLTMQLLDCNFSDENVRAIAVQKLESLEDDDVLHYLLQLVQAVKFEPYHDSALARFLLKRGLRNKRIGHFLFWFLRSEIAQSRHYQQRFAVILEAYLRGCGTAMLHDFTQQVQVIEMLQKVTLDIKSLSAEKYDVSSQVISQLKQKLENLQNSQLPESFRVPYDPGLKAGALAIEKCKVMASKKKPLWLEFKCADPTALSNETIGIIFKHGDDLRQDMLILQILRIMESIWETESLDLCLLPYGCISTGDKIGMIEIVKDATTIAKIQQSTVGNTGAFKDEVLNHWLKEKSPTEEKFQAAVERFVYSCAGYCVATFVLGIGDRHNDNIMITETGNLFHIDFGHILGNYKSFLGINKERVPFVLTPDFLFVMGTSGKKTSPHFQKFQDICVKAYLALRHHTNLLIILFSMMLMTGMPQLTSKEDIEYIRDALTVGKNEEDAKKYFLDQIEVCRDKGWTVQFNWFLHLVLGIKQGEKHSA
recorded-endpoint: pIC50
Scale: pIC50 equals -log10([C]), with [C] in mol/L.

Solved cases below.
compound-smiles | readout-number
Clc1ccc2c(c1)nc1n2CCOc2ccc(Br)cc2-1 | 4.93
Cc1ccc2c(c1)-c1nc3cc(F)ccc3n1CCO2 | 4.46
Cc1ccc2c(c1)-c1nc3cc(C(F)(F)F)ccc3n1CCO2 | 4.38

Output pIC50 of `Cc1ccc2c(c1)-c1nc3cc([N+](=O)[O-])ccc3n1CCO2` 5.02

Output pIC50 of `Cc1ccc2c(c1)-c1nc3cc(Br)ccc3n1CCO2` 4.36

Output pIC50 of `Cc1ccc2c(c1)-c1nc3cc(C)ccc3n1CCO2` 4.77

----------
Target: Phosphatidylinositol 4,5-bisphosphate 3-kinase catalytic subunit delta isoform (Homo sapiens)
Sequence (O00329 whole entry): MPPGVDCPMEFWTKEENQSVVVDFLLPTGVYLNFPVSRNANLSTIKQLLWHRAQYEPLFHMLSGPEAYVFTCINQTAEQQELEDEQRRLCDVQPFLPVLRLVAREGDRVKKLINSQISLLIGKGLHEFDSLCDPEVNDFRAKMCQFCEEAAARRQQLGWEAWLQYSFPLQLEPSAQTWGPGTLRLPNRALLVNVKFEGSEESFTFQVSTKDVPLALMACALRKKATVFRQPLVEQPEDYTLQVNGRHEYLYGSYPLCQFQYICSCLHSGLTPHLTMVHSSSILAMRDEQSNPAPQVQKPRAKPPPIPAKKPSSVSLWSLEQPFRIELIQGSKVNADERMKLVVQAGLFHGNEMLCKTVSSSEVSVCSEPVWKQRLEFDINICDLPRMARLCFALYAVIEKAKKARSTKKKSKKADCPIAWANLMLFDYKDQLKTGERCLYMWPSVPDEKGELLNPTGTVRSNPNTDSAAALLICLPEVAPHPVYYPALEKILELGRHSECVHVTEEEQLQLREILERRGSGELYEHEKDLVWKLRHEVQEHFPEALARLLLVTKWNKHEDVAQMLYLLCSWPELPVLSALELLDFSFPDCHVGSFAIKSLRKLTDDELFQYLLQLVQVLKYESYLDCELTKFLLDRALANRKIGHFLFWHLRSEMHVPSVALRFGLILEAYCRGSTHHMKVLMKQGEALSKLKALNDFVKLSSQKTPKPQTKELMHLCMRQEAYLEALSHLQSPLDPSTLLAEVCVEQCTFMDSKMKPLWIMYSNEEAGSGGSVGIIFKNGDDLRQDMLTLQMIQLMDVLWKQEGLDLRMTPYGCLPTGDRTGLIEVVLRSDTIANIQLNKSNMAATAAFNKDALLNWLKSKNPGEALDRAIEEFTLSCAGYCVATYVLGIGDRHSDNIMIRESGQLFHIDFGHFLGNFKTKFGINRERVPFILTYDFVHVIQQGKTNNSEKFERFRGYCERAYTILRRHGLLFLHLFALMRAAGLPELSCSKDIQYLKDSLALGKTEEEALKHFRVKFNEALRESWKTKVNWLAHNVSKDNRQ
Assay: Inhibition of recombinant PI3Kdelta (unknown origin) using […] as substrate after 3 hrs incubation by competitive fluorescence polarization kinase activity assay
Binary call on IC50 with cut-off 40 µM: strictly below means yes (1), and equality or higher means no (0).

Field: example entries. Status: answers known.
compound-smiles | category-label
Cc1ccc2c(c1)-c1nc3cc([N+](=O)[O-])ccc3n1CCO2 | yes (1)
Fc1ccc2c(c1)nc1n2CCOc2ccc(Br)cc2-1 | no (0)
Clc1ccc2c(c1)-c1nc3cc(Cl)ccc3n1CCO2 | no (0)
Cc1ccc2c(c1)-c1nc3cc(F)ccc3n1CCO2 | no (0)
Clc1ccc2c(c1)nc1n2CCOc2ccc(Br)cc2-1 | no (0)
Cc1ccc2c(c1)-c1nc3cc(Br)ccc3n1CCO2 | no (0)

Lab note: confirm whether the reported IC50 for this compound is below 40 µM, equality not counting. compound: `Cc1ccc2c(c1)-c1nc3cc(C)ccc3n1CCO2` no (0)

Lab note: confirm whether the reported IC50 for this compound is below 40 µM, equality not counting. compound: `Cc1ccc2c(c1)-c1nc3cc(C(F)(F)F)ccc3n1CCO2` no (0)

Lab note: confirm whether the reported IC50 for this compound is below 40 µM, equality not counting. compound: `O=c1cc(N2CCOCC2)oc2c(-c3ccccc3)cccc12` yes (1)

Lab note: confirm whether the reported IC50 for this compound is below 40 µM, equality not counting. compound: `Fc1ccc2c(c1)nc1n2CCOc2ccc(Cl)cc2-1` no (0)
